tested on: HeLa cells; experiment: Compound screen by flow cytometry: HeLa cell count as surrogate readout of cell viability (z-scoreHeLa); assay type: cell-based, human; conditions: PKIS compounds raw data; replicate 1; HeLa cell count; note: test concentration or dose not given here
endpoint: cell count rep 1
Numbers only.

Would you please look over these solved cases?
COc1cc(Nc2ncc(-c3ccccc3)o2)cc(OC)c1OC [GW627512B] = 2360
O=C(c1ccc(-c2cc(-c3c[nH]nc3-c3ccccn3)ccn2)cc1)N1CCOCC1 [GW812171X] = 9409
COc1ccc(-c2oc3ncnc(N)c3c2-c2ccc(NC(=O)Nc3cc(C(F)(F)F)ccc3F)cc2)cc1 [GW768505A] = 2576
c1ccc(Cn2ncc3cc(Nc4ncnc5ccccc45)ccc32)cc1 [GW273749A] = 9337

Dear reader, for each entry below, please note its cell count rep 1.
1. CN(C)c1cc2c(Nc3ccc4nc(Cc5ccccc5)[nH]c4c3)ncnc2cn1 [GW301888X]
2. Cn1cc(C=C2C(=O)Nc3cccnc32)c2ccccc21 [GW441756X]

Response given:
1: 6836; 2: 4844

Kindly give each listed record's cell count rep 1.
1. COc1cccc(C2=C(Nc3ccc(Cl)c(C(=O)O)c3)C(=O)NC2=O)c1 [SB-390769]
2. Cc1ccc(C(=O)Nc2ccc(Nc3ccnc4cc(-c5nccs5)ccc34)cc2O)cc1 [GW494702A]
3. c1ccc(COc2ccc(Nc3ncnc4ccc(-c5ccco5)cc34)cc2)cc1 [GW284372X]

Response given:
[7373, 6577, 4410]

---

system: HeLa cells; test: Compound screen by flow cytometry: HeLa cell count as surrogate readout of cell viability (z-scoreHeLa); assay type: cell-based, human; details: PKIS compound screen, HeLa cell count, replicate 1; note: test concentration or dose not given here
Would you mind telling me the reported z-scoreHeLa rep 1 of each entry?
One number for each entry.

CC(C)c1nc(-c2ccc(F)c(NS(=O)(=O)c3c(F)cccc3F)c2)c(-c2ccnc(Nc3ccc(N4CCOCC4)nc3)n2)s1 [GSK1804250A] = -1.56
Cc1c(Cn2ccn3c(=O)cc(N4CCOCC4)nc23)cccc1C(F)(F)F [GSK2289044B] = 0.49
CS(=O)(=O)Nc1ccc(-c2cc(-c3ccccc3)cc(C(N)=O)c2N)cc1 [GSK586581A] = 0.06

For each of the compounds below, state z-scoreHeLa rep 1.
1. Cc1ccc(NC(=O)c2ccc(Cl)cc2)cc1-c1ccc(C(=O)Nc2ccncc2)cc1 [GSK1398467A]
2. COc1cc(C)c(N(C)C(=O)CN(C)C)cc1Nc1nc(Nc2cccc(F)c2C(N)=O)c2cc[nH]c2n1 [GSK2219385A]
3. Cc1cccc(Cn2ccn3c(=O)cc(N4CCOCC4)nc23)c1 [GSK2297542A]
4. [O-][S+]1CCN(Cc2ccc(-c3ccc4ncnc(Nc5ccc(OCc6cccc(F)c6)c(Cl)c5)c4c3)o2)CC1 [GW576609A]
5. Cc1ccc(Nc2ccnc(Nc3cccc(C(N)=O)c3)n2)cc1O [GW575808A]

Response given:
[-1.44, -0.86, 1.10, 1.18, -0.11]

Your task in this section: give z-scoreHeLa rep 1 for each listed record.
1. CC(C)c1nc(-c2cccc(NS(=O)(=O)c3c(F)cccc3F)c2F)c(-c2ccnc(Nc3ccc(N4CCOCC4)nc3)n2)s1 [GSK2008607A]
2. COc1ccc(Nc2nccc(N3CCC(NC(=O)Nc4cccc(C(C)=O)c4)C3)n2)cc1 (stereo not shown) [GSK1379731A]
3. CN(c1ccc2c(c1)nc(NCc1ccc(F)cc1)n2C)c1ccnc(Nc2ccc(CS(C)(=O)=O)cc2)n1 [GW813244A]
4. c1ccc(-c2cc3ccncc3cc2OC2CCNCC2)cc1 [GSK1122999D]
5. Cc1ccc(O)cc1Nc1ccnc2cc(-c3ccc(CN4CCCCC4)o3)ccc12 [GW557777X]
6. COc1cc(Nc2nccc(N3CCC(NC(=O)C(C)c4ccc(Cl)cc4)C3)n2)cc(OC)c1OC (stereo not shown) [GSK1379757A]
7. COc1ccc(Nc2nccc(N3CCC(NC(=O)c4cc5ccccc5s4)C3)n2)cc1 (stereo not shown) [GSK1379738A]
8. COC(=O)c1cccc(NC(=O)NC2CCN(c3ccnc(NCc4ccc(F)cc4)n3)CC2)c1 [GSK1379860A]

Response given:
[-1.53, 0.63, 1.38, -0.33, 1.53, 0.66, 2.26, -0.66]
